# reported IC50; entries follow
TARGET_ENTITY: human endothelin receptor ETB (Homo sapiens, UniProt P24530)
Construct: expressed in transfected cells; host or cells: CHO cells (membrane fraction)
Sequence (P24530 27-442): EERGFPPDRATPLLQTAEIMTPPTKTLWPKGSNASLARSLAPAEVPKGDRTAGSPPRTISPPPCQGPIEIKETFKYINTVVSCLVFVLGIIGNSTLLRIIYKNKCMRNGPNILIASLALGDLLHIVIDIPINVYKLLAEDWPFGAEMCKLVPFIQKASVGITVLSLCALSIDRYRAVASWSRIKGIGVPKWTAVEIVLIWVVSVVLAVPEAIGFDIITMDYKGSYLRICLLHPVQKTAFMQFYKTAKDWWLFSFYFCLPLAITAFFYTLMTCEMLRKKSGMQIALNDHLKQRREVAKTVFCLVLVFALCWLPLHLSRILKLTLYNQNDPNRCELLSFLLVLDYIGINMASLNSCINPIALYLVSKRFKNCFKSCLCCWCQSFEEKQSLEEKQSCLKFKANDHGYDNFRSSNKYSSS
ASSAY_PROCEDURE: Radioiodinated endothelin-1 binding to membrane fraction of CHO cells expressing human endothelin receptor ETB
CONDITIONS: radioactive-iodine-labeled endothelin-1, 25° C., one hour
*1 amine or outer side, *2 acyl side, *3 side chain or, on linkers, in order; H or OH if unused. Where a SMILES comes first, the peptide text is derived from it. [ ]: non-standard residue; d: D form. The star is where a group is joined. Piperazinyl(4-(2-MeOPh)) = COc1ccccc1N1CCN(*)CC1; Piperazinyl(4-Ph) = c1ccc(N2CCN(*)CC2)cc1; dNle = CCCC[C@@H](N)C(=O)O; CO = O=C([*:1])[*:2]; X1 = C1CCCN(*)CC1; Moc = COC(=O)*
Answer in nM, number only, no unit symbol.

{"columns": ["MOLECULE", "READING_UNIT", "MEASURED_RESULT"],
 "data": [
  ["CCCC[C@@H](NC(=O)[C@@H](Cc1cn(C(=O)OC)c2ccccc12)NC(=O)[C@H](CC(C)C)NC(=O)N1CCCCCC1)C(=O)N[C@H](CC(=O)N1CCN(c2ccccc2OC)CC1)C(=O)O [W. Ex. 5] ({X1-CO}-L[dW](Moc)[dNle][dD](Piperazinyl(4-(2-MeOPh)))-OH)", "nM", 7.9]
]}

// below: IC50 requested for another molecule
CCCC[C@@H](NC(=O)[C@@H](Cc1cn(C(=O)OC)c2ccccc12)NC(=O)[C@H](CC(C)C)NC(=O)N1CCCCCC1)C(=O)N[C@H](CCC(=O)O)C(=O)N1CCN(c2ccccc2)CC1 [W. Ex. 4] ({X1-CO}-L[dW](Moc)[dNle][dE]-{Piperazinyl(4-Ph)}) yielded IC50 of 23

# credit: patent US5925731A
